Values from patent US20080064667A1

- Tested on: E. coli GC4559 (parent GC4560)
readout: MIC (µg/mL)
Numbers only, in µg/mL.

>  <molecule>
CN(C)c1cc2nc(CN3CCCC3)oc2c2c1C[C@H]1C[C@H]3[C@H](N(C)C)C(O)=C(C(N)=O)C(=O)[C@@]3(O)C(O)=C1C2=O

>  <observed>
2

$$$$

Continue with the next compound.
Recorded result, CN(C)Cc1nc2cc(N(C)C)c3c(c2o1)C(=O)C1=C(O)[C@]2(O)C(=O)C(C(N)=O)=C(O)[C@@H](N(C)C)[C@@H]2C[C@@H]1C3 , MIC: 4

###

- Test system: S. aureus GC6467 (tet(M) + (K))
- protocol text: MIC, broth microdilution (NCCLS)
- Assay type: cell-based
- condition set: Staphylococcus aureus
Please go through the items and note down their MIC.
Answers are plain numbers, in µg/mL.

Examples with answers:
>  <compound>
CN(C)Cc1nc2cc(N(C)C)c3c(c2o1)C(=O)C1=C(O)[C@]2(O)C(=O)C(C(N)=O)=C(O)[C@@H](N(C)C)[C@@H]2C[C@@H]1C3 [Example 36]

>  <MIC (µg/mL)>
16

$$$$
>  <compound>
CN(C)c1cc2nc(CCl)oc2c2c1C[C@H]1C[C@H]3[C@H](N(C)C)C(O)=C(C(N)=O)C(=O)[C@@]3(O)C(O)=C1C2=O [Example 35]

>  <MIC (µg/mL)>
8

$$$$
>  <compound>
CN(C)c1cc2nc(-c3ccc4c(c3)OCO4)oc2c2c1C[C@H]1C[C@H]3[C@H](N(C)C)C(O)=C(C(N)=O)C(=O)[C@@]3(O)C(O)=C1C2=O [Example 14]

>  <MIC (µg/mL)>
8

$$$$

# context switch: different compound, same MIC
Looking up CN(C)c1cc2nc(CN3CCCC3)oc2c2c1C[C@H]1C[C@H]3[C@H](N(C)C)C(O)=C(C(N)=O)C(=O)[C@@]3(O)C(O)=C1C2=O [Example 37] , I found its MIC recorded as 8

###

- Tested on: S. aureus GC1131 (Clinical)
readout: MIC (µg/mL)
One number for each entry, in µg/mL.

>  <molecule>
CCOc1cc(OCC)c(-c2nc3cc(N(C)C)c4c(c3o2)C(=O)C2=C(O)[C@]3(O)C(=O)C(C(N)=O)=C(O)[C@@H](N(C)C)[C@@H]3C[C@@H]2C4)cc1OCC

>  <unit tag>
µg/mL

>  <MIC>
16

$$$$

Switching to the query record.
Value of MIC reported for the molecule CN(C)Cc1nc2cc(N(C)C)c3c(c2o1)C(=O)C1=C(O)[C@]2(O)C(=O)C(C(N)=O)=C(O)[C@@H](N(C)C)[C@@H]2C[C@@H]1C3 is 4

###

Measured MIC (E. coli GC4559 (parent GC4560))

Some solved cases for reference:
>  <compound>
CN(C)c1cc2nc(-c3ccsc3)oc2c2c1C[C@H]1C[C@H]3[C@H](N(C)C)C(O)=C(C(N)=O)C(=O)[C@@]3(O)C(O)=C1C2=O [Example 17]

>  <MIC>
> 64 µg/mL

$$$$
>  <compound>
CN(C)c1cc2nc(CCl)oc2c2c1C[C@H]1C[C@H]3[C@H](N(C)C)C(O)=C(C(N)=O)C(=O)[C@@]3(O)C(O)=C1C2=O [Example 35]

>  <MIC>
8 µg/mL

$$$$
>  <compound>
CC(=O)OCc1ccc(-c2nc3cc(N(C)C)c4c(c3o2)C(=O)C2=C(O)[C@]3(O)C(=O)C(C(N)=O)=C(O)[C@@H](N(C)C)[C@@H]3C[C@@H]2C4)o1 [Example 21]

>  <MIC>
> 64 µg/mL

$$$$
>  <compound>
CN(C)c1cc2nc(-c3ccc(OCc4ccccc4)cc3)oc2c2c1C[C@H]1C[C@H]3[C@H](N(C)C)C(O)=C(C(N)=O)C(=O)[C@@]3(O)C(O)=C1C2=O [Example 11]

>  <MIC>
> 64 µg/mL

$$$$
>  <compound>
CN(C)c1cc2nc(-c3cc4ccccc4o3)oc2c2c1C[C@H]1C[C@H]3[C@H](N(C)C)C(O)=C(C(N)=O)C(=O)[C@@]3(O)C(O)=C1C2=O [Example 18]

>  <MIC>
> 64 µg/mL

$$$$

# per-item lookup of MIC; items listed below
1. COc1ccc(/C=C/c2nc3cc(N(C)C)c4c(c3o2)C(=O)C2=C(O)[C@]3(O)C(=O)C(C(N)=O)=C(O)[C@@H](N(C)C)[C@@H]3C[C@@H]2C4)cc1 [Example 26]
2. CCCCNCc1nc2cc(N(C)C)c3c(c2o1)C(=O)C1=C(O)[C@]2(O)C(=O)C(C(N)=O)=C(O)[C@@H](N(C)C)[C@@H]2C[C@@H]1C3 [Example 39]
3. CC(C)=Cc1nc2ccc3cc4c(c(O)c3c2o1)C(=O)[C@]1(O)C(=O)C(C(N)=O)=C(O)[C@@H](N(C)C)[C@@H]1C4 [Example 2]
4. CN(C)c1ccc(-c2nc3ccc4cc5c(c(O)c4c3o2)C(=O)[C@]2(O)C(=O)C(C(N)=O)=C(O)[C@@H](N(C)C)[C@@H]2C5)cc1 [Example 3]
5. CN(C)c1cc2nc(-c3cc4ccccc4n3C)oc2c2c1C[C@H]1C[C@H]3[C@H](N(C)C)C(O)=C(C(N)=O)C(=O)[C@@]3(O)C(O)=C1C2=O [Example 19]
6. CN(C)c1cc2nc(C=C(c3ccccc3)c3ccccc3)oc2c2c1C[C@H]1C[C@H]3[C@H](N(C)C)C(O)=C(C(N)=O)C(=O)[C@@]3(O)C(O)=C1C2=O [Example 1]

1. > 64 µg/mL
2. 32 µg/mL
3. > 64 µg/mL
4. > 64 µg/mL
5. > 64 µg/mL
6. > 64 µg/mL
